Items are presented alongside their recorded pKd.
- assayed system: T1, PDZD2_2, O15018
- T1 sequence (O15018 329-429, limits assumed, looked up): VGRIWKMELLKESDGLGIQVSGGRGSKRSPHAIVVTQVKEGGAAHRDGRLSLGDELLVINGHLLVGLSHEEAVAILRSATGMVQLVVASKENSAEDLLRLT
- assay notes: holdup assay
- Set-up: key: below the threshold = too weak to quantify, mostly under pKd 3.1 to 4
- protocol conditions: plain residues with an end cap or a label only (N-terminal biotin on a linker: ttds)
observation type: pKd

{"binder": "RLPKIKETTV [FRMPD4, Q14CM0]", "recorded number": 4.05}
{"binder": "VDFPPKESSL [ACVR2A, P27037]", "recorded number": 3.63}
{"binder": "PRVKPQRSKV [PPP1R13L, Q8WUF5]", "recorded number": 4.01}
{"binder": "NDPAWDETNL [ARHGEF7, Q14155]", "recorded number": 3.82}
